All figures here come from PubChem BioAssay (NCI).

measurement-protocol: NCI Yeast Anticancer Drug Screen. Data for the wt2 strain (AID 169);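 also: 0% = growth of vehicle-treated yeast cultures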
experimental-setup: S. cerevisiae wt2 strain growth inhibition; at 33.0 µM; stronger effect = higher value
About 79,000 compounds went through this panel and 15% of them were active in at least one assay; those are over-represented in the sample as a whole.
This listing pairs compounds with measured growth inhibition.
quantity-name: growth inhibition (%)

compound | quantity-name | measurement-units | measured-value
Cc1nc2ccc(N=NN(C)C)cc2[nH]1 | growth inhibition | % | 98
Cc1ccc(NC(=O)/C(CC2N=c3c(ccc4c(O)c5ccccc5c(O)c34)=NC2O)=N/NC(C)(C)C)cc1 (configuration not stated) | growth inhibition | % | 5
COc1ccc(N=CN(C)C)c(C)c1 | growth inhibition | % | 87
COc1ccc([N+](=O)[O-])c2c(NCCCN(C)C)c3ccccc3nc12 | growth inhibition | % | 17
CN(C)CCNc1ccc2ncnc3c2c1C(=O)c1ccccc1-3 | growth inhibition | % | 49
CN(CCN(C)Cc1ccccc1)Cc1ccccc1 | growth inhibition | % | 1
COC(C(O)CO)C(O)C(O)C(=O)NNc1ccccc1 (configuration not stated) | growth inhibition | % | 9
Cc1ccc2nc(-c3cccc([N+](=O)[O-])c3)oc(=O)c2c1 | growth inhibition | % | -32
COC(=O)Oc1cc(Cl)c(Cl)cc1Cl | growth inhibition | % | -2
O=c1ssc(=Nc2ccccc2)n1-c1ccccc1 | growth inhibition | % | -9
CCCCCOC(=S)SC(=O)OCC | growth inhibition | % | 39
O=C(COC(=O)c1ccccc1)c1ccc(Br)cc1 | growth inhibition | % | 100
